This collection of values is drawn from ChEMBL document CHEMBL1201861.

- Test system: SW-620;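 further: growth inhibition of human SW-620 cells, measured by a cell viability assay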
- assay: cells
- Type: functional, cell-based, Homo sapiens
- measurementSetup: Homo sapiens, SW-620
- Description: SANGER: Inhibition of human SW620 cell growth in a cell viability assay.
testReadout: IC50 (nM)
Express your answer in nM, writing the number without its unit.

Requested field: IC50. Item: C=CCNC1=C2C[C@@H](C)C[C@H](OC)[C@H](O)[C@@H](C)/C=C(\C)[C@H](OC(N)=O)[C@@H](OC)/C=C\C=C(/C)C(=O)NC(=CC1=O)C2=O
70.3

Requested field: IC50. Item: COc1cc([C@@H]2c3cc4c(cc3[C@@H](O[C@@H]3O[C@@H]5CO[C@@H](C)O[C@H]5[C@H](O)[C@H]3O)[C@H]3COC(=O)[C@H]23)OCO4)cc(OC)c1O [ETOPOSIDE]
384
